Assay: Quantitative High-Throughput drug screen in 47 multiple myeloma cell lines against the NCATS MIPE library collection: VP6_DJ cell viability assay (AID 1919867); note: nearly all actives have a fitted effect of over 40% in size; note: potency is the fitted concentration of half-maximal effect
Conditions: ATP luminescence, 48 h; series mostly up to 45.8 µM
Results filed as inconclusive are left out. Active and inactive are the calls of the source. Calls come from the whole dose curve; as a rule, active = well fitted cell-killing curve with a large enough effect; inconclusive = small, poorly fitted or top-dose-only effect, or effect the other way; inactive = no such curve, though single readings can be large or run the other way.
READOUT LABEL: Potency

Reference set (8 entries):
MOLECULE	Potency
O=S(=O)(F)Cc1ccccc1	inactive
CN1CCN(c2ccc([N+](=O)[O-])c3no[n+]([O-])c23)CC1	14.8 µM (active)
C[C@@]12OC(=O)[C@]1([C@@H](O)[C@@H]1C=CCCC1)NC(=O)[C@H]2CCCl	0.001 µM (active)
CCCCCC[C@H]1C(=O)O[C@H](C)[C@H](NC(=O)c2cccc(NC=O)c2O)C(=O)O[C@@H](C)[C@@H]1OC(=O)CC(C)C	0.0469 µM (active)
O=C(N[C@H]1CN2CCC1CC2)c1ccc(Cl)cc1	7.43 µM (active)
CC(=CCCC1=CCC(C2=CC(=O)OC2O)OC1O)CCC1=C(C)CCCC1(C)C (stereo not given)	4.18 µM (active)
CC(C)(C)c1cc(C=C(C#N)C#N)cc(Br)c1O	11.8 µM (active)
Cc1c(C(=O)c2cccc3ccccc23)c2cccc3c2n1[C@H](CN1CCOCC1)CO3	inactive

What the record says about CCNC(=O)CC1N=C(c2ccc(Cl)cc2)c2cc(OC)ccc2-n2c(C)nnc21 (stereo not given) : Potency is 16.6 µM (active)

Looking up "CCN1CCN(C(=O)Cc2ccc(Nc3ncc(F)c(Nc4ccc(C(=O)Nc5ccccc5Cl)cc4)n3)cc2)CC1" , I see its Potency listed as 2.64 µM (active)
